# target or system: Sulfhydryl oxidase 1 (Homo sapiens) (UniProt O00391)
# Sequence (O00391 whole entry, looked up): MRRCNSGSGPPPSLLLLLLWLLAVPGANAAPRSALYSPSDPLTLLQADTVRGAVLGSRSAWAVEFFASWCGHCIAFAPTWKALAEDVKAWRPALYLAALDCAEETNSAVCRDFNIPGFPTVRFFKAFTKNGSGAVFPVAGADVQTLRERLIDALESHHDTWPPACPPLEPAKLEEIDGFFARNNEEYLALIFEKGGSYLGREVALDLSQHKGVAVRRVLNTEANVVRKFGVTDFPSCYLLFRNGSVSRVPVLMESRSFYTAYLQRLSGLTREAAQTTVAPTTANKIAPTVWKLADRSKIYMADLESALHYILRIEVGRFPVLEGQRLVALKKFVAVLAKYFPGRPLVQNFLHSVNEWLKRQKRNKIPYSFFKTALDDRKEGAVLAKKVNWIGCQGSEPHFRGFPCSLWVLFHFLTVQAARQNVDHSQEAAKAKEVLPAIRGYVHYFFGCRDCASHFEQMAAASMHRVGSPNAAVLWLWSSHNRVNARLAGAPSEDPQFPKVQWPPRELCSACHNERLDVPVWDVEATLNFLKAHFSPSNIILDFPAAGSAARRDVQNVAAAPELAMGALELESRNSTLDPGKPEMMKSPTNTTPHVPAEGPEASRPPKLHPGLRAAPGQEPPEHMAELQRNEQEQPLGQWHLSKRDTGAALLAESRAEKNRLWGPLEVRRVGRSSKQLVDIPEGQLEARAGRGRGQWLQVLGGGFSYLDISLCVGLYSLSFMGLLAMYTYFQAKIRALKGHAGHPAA
# assay overview: QSOX1 enzyme inhibitors, primary screen, biochemical, ROS-Glo H2O2 luminescence, HTS (AID 1347418)
# run conditions: recombinant QSOX1, ROS-Glo H2O2 luminescence; at 12.5 µM; hits give high values; active = any value above zero
About 750 (58%) of roughly 1,300 compounds were called active. This is one part of the list.
measurement name: inhibition (%)
Response body: numeric value in %, unit text excluded.

Past entries and their recorded results:
Supply recorded inhibition for COc1ccc(CCN(C)CCCC(C#N)(c2cc(OC)c(OC)c(OC)c2)C(C)C)cc1OC (stereo unspecified) here.
4

Quick one: give measured inhibition for O=C(O)c1cc2cc(Cc3cccnc3)ccc2o1
-7.8

Further cases:
Output measured inhibition for this item: NS(=O)(=O)C1=[C+]C=[C+]c2c1c([N+](=O)[O-])cc1nc([O-])c([O-])nc21
-4.9

Dear colleague, please send me the reported inhibition for CCN(Cc1ccncc1)C(=O)C(CO)c1ccccc1 (stereo unspecified) when you can.
-4.5

Quickly give me recorded inhibition for CCc1ccc(/C=C2/SC(=S)NC2=O)cc1
-3

Retrieve inhibition measured for Cc1ccc(N(CC2=NCCN2)c2cccc(O)c2)cc1 and print it.
34.7

====

Form field: inhibition (one value per entry).
# target or system: Sulfhydryl oxidase 1 (Homo sapiens)
# assay overview: QSOX1 enzyme inhibitors, primary screen, biochemical, ROS-Glo H2O2 luminescence, HTS (AID 1347418)
# run conditions: recombinant QSOX1, ROS-Glo H2O2 luminescence; at 12.5 µM; hits give high values; active = any value above zero
About 750 (58%) of roughly 1,300 compounds were called active. Some of the results follow.
Quick reminder: number only, in %, skip the unit.

Return reported inhibition. Input molecule: O=C(c1ccc(F)cc1)C1CCN(CCn2c(=O)[nH]c3ccccc3c2=O)CC1
1.5

Look up and report measured inhibition for this entry: O=c1[nH]c2ccccc2c2ccccc12
-9.8

Consider the molecule COc1cc(Cc2cnc(N)nc2N)cc(OC)c1OC . State its measured inhibition.
0.5

Return value of inhibition for input O=P(O)(O)C(Cl)(Cl)P(=O)(O)O , no commentary.
5.2

Provide measured inhibition value, entry: O=c1ccc2ccc(O)c(O)c2o1
31.6

Give the reported value of inhibition for this record: NC1CONC1=O (configuration not stated)
-3.5

Further cases:
For Nc1cc(=O)[nH]c(N)n1 , write its inhibition.
2

====

# target or system: Sulfhydryl oxidase 1 (Homo sapiens)
# assay overview: QSOX1 enzyme inhibitors, primary screen, biochemical, ROS-Glo H2O2 luminescence, HTS (AID 1347418)
# run conditions: recombinant QSOX1, ROS-Glo H2O2 luminescence; at 12.5 µM; hits give high values; active = any value above zero
The campaign covered roughly 1,300 compounds. About 750 (58%) were called active. The list shows a part of the results.
# reported inhibition; entries follow
API: value field is a number in %; no unit string.

Give reported inhibition for CC(C)[C@@H]1CC[C@@H](C)C[C@@H]1P(=O)(c1ccccc1)c1ccccc1 (Sulfhydryl oxidase 1 (Homo sapiens))
2.9

Fetch value of inhibition on Sulfhydryl oxidase 1 (Homo sapiens) for CN1C2CCC1CC(OC(=O)c1c[nH]c3ccccc13)C2 (stereo unspecified) .
2.4

# return inhibition of N[C@@H](CCCC(=O)O)C(=O)O (system: Sulfhydryl oxidase 1 (Homo sapiens))
6.7

Fill in: inhibition on Sulfhydryl oxidase 1 (Homo sapiens), entry NNCCc1ccccc1
-0.4

Fill: inhibition (Sulfhydryl oxidase 1 (Homo sapiens)) for this compound NC(=O)CC[C@H](N)C(=O)O
2.8
